test: Binding affinity of compound to the stromelysin-1 catalytic domain at pH 6.0, 22 degree C
Property Measured: pKd
Quick note: pKd values are minus log10 of concentrations in mol/L.

### Prompt Param item = CC(C)[C@H](NS(=O)(=O)c1ccc(-c2ccc(Br)cc2)cc1)C(=O)O ; retrieve measured pKd.
### Response 8.17

###

Quick reference for Kd among some compounds
experiment: Binding affinity of compound to the stromelysin-1 catalytic domain at pH 6.7, 22 degree C

{"columns": ["Smiles String", "Kd"],
 "data": [
  ["CC(C)[C@@H](NS(=O)(=O)c1ccc(-c2ccc(Br)cc2)cc1)C(=O)O", "679 nM"]
]}

Note: attention shifts to another entry.
### Prompt Param item = CC(C)[C@H](NS(=O)(=O)c1ccc(-c2ccc(Br)cc2)cc1)C(=O)O ; retrieve measured Kd.
### Response 76.6 nM

Values compiled from ChEMBL document CHEMBL1132795.
